Target: T1, recombinant extracellular portion of human IGF1R (IGF1R^933-His) (human, UniProt P08069 31-933)
T1 construct: It contains a furin cleavage site (RKRR) between the alpha and beta subunits, so the secreted protein may be two disulphide-linked chains; Immobilized by amine coupling on a CM5 chip; also called recombinant human IGF1R; human IGF1R fragment; not shown: His tag from vector pCDN4/myc-His
Experiment: SPR, Biacore 3000, human IGF1R immobilized on CM5, VHH as analyte, 1:1 model
Description: Approximately 3000 Resonance Units (RU) of recombinant human IGF1R were immobilized on a Sensor chip CM5. Immobilization was carried out at a concentration of 10 μg/ml in 10 mM acetate at pH4.0 using the amine coupling kit supplied by the manufacturer. The remaining binding sites were blocked with 1 M ethanolamine pH 8.5. An ethanolamine blocked surface was used as a reference surface. […] Data were analyzed with BIAevaluation 4.1 software (GE Healthcare).
Labelling field: enter 1 if recorded Kd is less than 7 nM. Enter -1 if it equals or exceeds that cut-off.

Binder | Class Name
IGF1R-3 VHH (VHH, Llama VHH expressed in E. coli TG1 from pSJF2H and tested as monomer; also called anti-IGF1R VHH IGF1R-3; IGF1R VHH; not shown: C-terminal tag from expression vector pSJF2H (protein purified by IMAC)) VHH: QVKLEESGGGLVQAGGSLRLSCVASEYPSNFYAMSWFRQAPGKEREFVAGVSRDGLTTLYADSVKGRFTMSRDNAKNTVDLQMNSVKAEDTAVYYCAIVITGVWNKVDVNSRSYHYWGQGTQVTVSS | 1
IGF1R-3_H5 (VHH, Humanized variant of IGF1R-3, monomeric VHH; not shown: C-terminal tag from expression vector pSJF2H (protein purified by IMAC)) VHH: EVQLVESGGGLVQPGGSLRLSCAASEYPSNFYAMSWFRQAPGKEREFVSGVSRDGLTTLYADSVKGRFTISRDNSKNTLYLQMNSLRAEDTAVYYCAIVITGVWNKVDVNSRSYHYWGQGTLVTVSS | -1
IGF1R-3_H4 (VHH, Humanized variant of IGF1R-3, monomeric VHH; not shown: C-terminal tag from expression vector pSJF2H (protein purified by IMAC)) VHH: QVQLVESGGGLVQPGGSLRLSCAASEYPSNFYAMSWFRQAPGKEREFVAGVSRDGLTTLYADSVKGRFTMSRDNSKNTVYLQMNSLRAEDTAVYYCAIVITGVWNKVDVNSRSYHYWGQGTLVTVSS | 1
IGF1R-3_H1 (VHH, Humanized variant of IGF1R-3, monomeric VHH; not shown: C-terminal tag from expression vector pSJF2H (protein purified by IMAC)) VHH: EVQLVESGGGLVQPGGSLRLSCAASEYPSNFYAMSWVRQAPGKGLEWVSGVSRDGLTTLYADSVKGRFTISRDNSKNTLYLQMNSLRAEDTAVYYCAIVITGVWNKVDVNSRSYHYWGQGTLVTVSS | -1
IGF1R-3_H2 (VHH, Humanized variant of IGF1R-3, monomeric VHH; not shown: C-terminal tag from expression vector pSJF2H (protein purified by IMAC)) VHH: QVQLVESGGGLVQPGGSLRLSCAASEYPSNFYAMSWVRQAPGKGLEWVAGVSRDGLTTLYADSVKGRFTMSRDNSKNTVYLQMNSLRAEDTAVYYCAIVITGVWNKVDVNSRSYHYWGQGTLVTVSS | 1

These measurements were taken from patent US20170015749A1.
